Where do these numbers come from? They come from ChEMBL document CHEMBL1132537.

system: Rattus norvegicus; experiment: Effect on Dopamine synthesis in rat Striatum(ST), measured as accumulation of DOPA(L-3,4-dihydroxyphenylalanine) at a peroral dose of 10 mg/kg; assay type: functional; settings: route oral

- structure.smiles.string: "Cc1ccc(N2CCN(Cc3ccc4c(c3)NC(=O)CO4)CC2)cc1C"
  display.unit: "%"
  Change: 126
- structure.smiles.string: "Cc1ccc(N2CCN(Cc3ccc4c(c3)OCC(=O)N4)CC2)cc1"
  display.unit: "%"
  Change: 140
- structure.smiles.string: "COc1ccc(N2CCN(Cc3ccc4c(c3)OCC(=O)N4)CC2)cc1"
  display.unit: "%"
  Change: 104
- structure.smiles.string: "O=C1COc2cc(CN3CCN(c4ccc(Cl)cc4)CC3)ccc2N1"
  display.unit: "%"
  Change: 110
- structure.smiles.string: "Cc1ccc(C2CCN(Cc3ccc4c(c3)OCC(=O)N4)CC2)cc1C"
  display.unit: "%"
  Change: 99

====

molecular target: Muscarinic acetylcholine receptor M5 (Homo sapiens); test: Inhibition of [3H]- NMS binding against human recombinant Muscarinic acetylcholine receptor M5
Sequence (P08912 whole entry): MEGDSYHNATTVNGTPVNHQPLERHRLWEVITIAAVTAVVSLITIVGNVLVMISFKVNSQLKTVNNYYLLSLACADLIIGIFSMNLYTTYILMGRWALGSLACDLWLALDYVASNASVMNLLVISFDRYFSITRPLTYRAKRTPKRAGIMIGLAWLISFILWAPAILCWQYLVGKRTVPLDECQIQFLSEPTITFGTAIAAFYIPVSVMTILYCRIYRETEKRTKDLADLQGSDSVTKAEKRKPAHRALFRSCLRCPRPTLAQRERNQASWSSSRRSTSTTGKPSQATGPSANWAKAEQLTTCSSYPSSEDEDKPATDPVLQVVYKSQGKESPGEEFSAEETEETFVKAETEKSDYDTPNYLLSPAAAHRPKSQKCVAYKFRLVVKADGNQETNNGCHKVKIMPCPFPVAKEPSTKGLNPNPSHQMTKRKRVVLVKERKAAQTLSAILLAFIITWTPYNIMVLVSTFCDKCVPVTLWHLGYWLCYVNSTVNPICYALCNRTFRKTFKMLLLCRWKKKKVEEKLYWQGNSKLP
pKi: −log10 of the molar value.
property.measured: pKi

- structure.smiles.string: "O=C1COc2cc(CN3CCN(c4ccc(Cl)cc4)CC3)ccc2N1"
  property.measured: "pKi"
  recorded.number: 6.02

====

molecular target: D(4) dopamine receptor (Homo sapiens)
Sequence (P21917 whole entry): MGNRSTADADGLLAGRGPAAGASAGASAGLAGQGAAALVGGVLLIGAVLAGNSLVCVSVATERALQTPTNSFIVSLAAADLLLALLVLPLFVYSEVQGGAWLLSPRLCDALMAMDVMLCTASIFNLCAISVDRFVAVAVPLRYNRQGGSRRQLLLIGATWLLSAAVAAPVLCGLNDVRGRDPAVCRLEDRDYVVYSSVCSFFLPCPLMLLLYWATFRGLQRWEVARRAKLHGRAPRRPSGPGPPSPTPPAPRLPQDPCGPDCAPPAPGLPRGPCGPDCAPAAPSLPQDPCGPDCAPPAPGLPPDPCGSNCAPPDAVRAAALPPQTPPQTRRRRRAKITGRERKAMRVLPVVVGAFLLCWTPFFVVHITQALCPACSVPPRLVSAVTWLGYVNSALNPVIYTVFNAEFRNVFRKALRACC

- structure.smiles.string: "Cc1ccc(C2CCN(Cc3ccc4c(c3)OCC(=O)N4)CC2)cc1C"
  Ki: "2.6 nM"
- structure.smiles.string: "COc1ccc(N2CCN(Cc3ccc4c(c3)OCC(=O)N4)CC2)cc1"
  Ki: "5 nM"
- structure.smiles.string: "O=C1COc2cc(CN3CCN(c4ccc(Cl)cc4)CC3)ccc2N1"
  Ki: "4.3 nM"
- structure.smiles.string: "Cc1ccc(N2CCN(Cc3ccc4c(c3)NC(=O)CO4)CC2)cc1"
  Ki: "4.3 nM"
- structure.smiles.string: "O=C1COc2ccc(CN3CCN(c4ccccc4)CC3)cc2N1"
  Ki: "18.3 nM"
- structure.smiles.string: "COc1ccc(C2CCN(Cc3ccc4c(c3)OCC(=O)N4)CC2)cc1"
  Ki: "6.7 nM"
- structure.smiles.string: "O=C1COc2cc(CN3CCN(c4ccccc4)CC3)ccc2N1"
  Ki: "6.1 nM"
- structure.smiles.string: "Cc1ccc(C2CCN(Cc3ccc4c(c3)OCC(=O)N4)CC2)cc1"
  Ki: "2.6 nM"

====

biological target: UniProt P43140
Sequence (P43140 whole entry): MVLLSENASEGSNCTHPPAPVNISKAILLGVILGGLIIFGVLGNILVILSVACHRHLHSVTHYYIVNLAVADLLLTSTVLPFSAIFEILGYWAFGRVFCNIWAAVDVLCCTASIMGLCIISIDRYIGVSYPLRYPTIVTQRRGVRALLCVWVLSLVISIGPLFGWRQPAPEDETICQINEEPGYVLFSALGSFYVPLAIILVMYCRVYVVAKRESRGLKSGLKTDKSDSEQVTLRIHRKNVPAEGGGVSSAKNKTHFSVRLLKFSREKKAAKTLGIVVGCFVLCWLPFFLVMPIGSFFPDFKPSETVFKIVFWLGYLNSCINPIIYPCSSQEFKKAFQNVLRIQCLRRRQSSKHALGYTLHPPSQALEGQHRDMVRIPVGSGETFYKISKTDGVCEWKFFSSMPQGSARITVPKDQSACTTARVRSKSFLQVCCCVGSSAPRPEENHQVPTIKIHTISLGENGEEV

- structure.smiles.string: "O=C1COc2cc(CN3CCN(c4ccc(Cl)cc4)CC3)ccc2N1"
  experimental.target: "UniProt P43140"
  display.unit: "nM"
  IC50: 500

====

target: Sigma intracellular receptor 2 (Rattus norvegicus); test: Inhibition of [3H]- Ifenprodil binding against rat brain Sigma opioid receptor type 2
property.measured: Ki (nM)

- structure.smiles.string: "O=C1COc2cc(CN3CCN(c4ccc(Cl)cc4)CC3)ccc2N1"
  display.unit: "nM"
  recorded.number: 231

====

molecular target: Sigma intracellular receptor 2 (Rattus norvegicus, UniProt Q5U3Y7); test: Inhibition of [3H]- Ifenprodil binding against rat brain Sigma opioid receptor type 2
Sequence (Q5U3Y7 whole entry, looked up): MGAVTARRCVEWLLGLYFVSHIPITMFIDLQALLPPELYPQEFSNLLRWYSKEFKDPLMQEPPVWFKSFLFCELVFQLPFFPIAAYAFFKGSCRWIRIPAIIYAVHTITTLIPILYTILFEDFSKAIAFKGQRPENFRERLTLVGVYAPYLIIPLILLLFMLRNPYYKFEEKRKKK

- structure.smiles.string: "O=C1COc2cc(CN3CCN(c4ccc(Cl)cc4)CC3)ccc2N1"
  IC50 [nM]: 375

====

Biological target: Alpha-1B adrenergic receptor (Rattus norvegicus, UniProt P15823)
Sequence (P15823 whole entry): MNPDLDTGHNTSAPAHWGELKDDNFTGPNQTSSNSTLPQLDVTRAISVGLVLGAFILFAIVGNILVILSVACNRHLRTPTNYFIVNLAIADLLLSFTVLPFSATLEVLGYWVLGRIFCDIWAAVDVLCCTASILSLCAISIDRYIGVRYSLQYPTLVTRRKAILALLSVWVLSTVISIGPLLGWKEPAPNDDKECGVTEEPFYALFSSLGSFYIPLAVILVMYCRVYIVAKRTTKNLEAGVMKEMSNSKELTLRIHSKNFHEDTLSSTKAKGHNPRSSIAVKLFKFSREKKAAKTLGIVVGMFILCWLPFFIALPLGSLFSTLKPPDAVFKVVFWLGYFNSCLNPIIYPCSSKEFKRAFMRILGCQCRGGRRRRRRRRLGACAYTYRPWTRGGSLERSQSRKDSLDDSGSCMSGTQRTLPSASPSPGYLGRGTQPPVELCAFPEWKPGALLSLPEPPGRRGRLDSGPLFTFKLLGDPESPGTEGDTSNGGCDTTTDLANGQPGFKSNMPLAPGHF
pIC50: −log10 of the molar value.
property.measured: pIC50

- structure.smiles.string: "O=C1COc2cc(CN3CCN(c4ccc(Cl)cc4)CC3)ccc2N1"
  experimental.target: "Alpha-1B adrenergic receptor (Rattus norvegicus, UniProt P15823)"
  recorded.number: 5.85

====

molecular target: D(3) dopamine receptor (Homo sapiens)
Sequence (P35462 whole entry): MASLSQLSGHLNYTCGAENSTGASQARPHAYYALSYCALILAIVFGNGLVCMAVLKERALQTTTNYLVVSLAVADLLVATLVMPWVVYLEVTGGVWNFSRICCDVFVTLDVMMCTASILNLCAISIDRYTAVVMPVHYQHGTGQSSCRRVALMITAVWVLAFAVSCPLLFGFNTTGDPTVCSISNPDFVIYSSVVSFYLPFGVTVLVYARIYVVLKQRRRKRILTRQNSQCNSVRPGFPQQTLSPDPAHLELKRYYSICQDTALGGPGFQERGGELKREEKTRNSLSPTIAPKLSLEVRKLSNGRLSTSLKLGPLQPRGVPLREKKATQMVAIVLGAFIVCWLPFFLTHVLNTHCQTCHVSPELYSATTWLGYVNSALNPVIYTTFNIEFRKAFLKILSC

- structure.smiles.string: "COc1ccc(C2CCN(Cc3ccc4c(c3)NC(=O)CO4)CC2)cc1"
  Ki: "> 3.03 µM"
- structure.smiles.string: "O=C1COc2ccc(CN3CCN(c4ccc(Cl)cc4)CC3)cc2N1"
  Ki: "> 3.03 µM"
- structure.smiles.string: "COc1ccc(N2CCN(Cc3ccc4c(c3)NC(=O)CO4)CC2)cc1"
  Ki: "> 3.03 µM"
